# assayOverview: NCI Yeast Anticancer Drug Screen. Data for the wt2 strain (AID 169);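 also: 0% = growth of vehicle-treated yeast cultures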
# testSettings: S. cerevisiae wt2 strain growth inhibition; at 11.0 µM
This is part of a sample that, as a whole, favours compounds with a hit. Of some 79,000 tested, about 15% had one in any assay. The source made the active and inactive calls. Rule as the data show it: active = growth inhibition above about 70%; inactive = the rest.
Tick one outcome: active, inactive

Dear colleague, could you share the recorded outcome for CC(=O)c1cc2c(Cl)cc(Cl)cc2oc1=O when you have a moment? inactive

====

# assayOverview: NCI Yeast Anticancer Drug Screen. Data for the rad18 strain (AID 177)
# testSettings: S. cerevisiae rad18 mutant growth inhibition; at 1.2 µM; hits give high values
About 79,000 compounds went through this panel and 15% of them were active in at least one assay; those are over-represented in the sample as a whole.
valueKind: growth inhibition (%)
Numbers only, in %.

As a guide, the following entries are already answered.
# molecule, growth inhibition / %
measured = [
    ("CCN(CC)CC(O)c1cc(-c2ccc(Cl)cc2)nc2c(-c3ccccc3)cccc12 (configuration not stated)", -2),
    ("C/C(=N\\NC(=S)NNC(=S)N(C)c1ccccc1)c1ccccn1", 16),
    ("O=C(CNS(=O)(=O)Cc1ccccc1)NNc1ccccc1", 4),
    ("NC(N)=N/N=C/c1cc(Cl)cc(Cl)c1O", -8),
    ("O=C(N/N=C\\c1c(Cl)cccc1Cl)N/N=C/c1c(Cl)cccc1Cl", -10),
    ("CC(=O)C1=C(O)C2(C)c3c(O)c(C)c(O)c(C(C)=O)c3OC2(Sc2ccccc2)CC1=O (configuration not stated)", 18),
    ("Nc1nc(F)nc2c1ncn2C1OC(COP(=O)(O)O)C(O)C1O (configuration not stated)", -2),
    ("O=C(O)c1cccc2cccc(-c3c4ccc(=O)cc-4oc4cc(O)ccc34)c12", 18),
    ("CC(=O)C1=C(C)O/C(=C/c2cccc(Cl)c2)C1=O", -7),
    ("CCC(=O)Oc1ccc(/C=N/NC(N)=S)nc1", -4),
]

Provide each entry's growth inhibition from the list below.
1. CCCCCCCCCCCCCCCCCCNC(=S)/N=C\C1=C(O)c2ccccc2C1=O
2. O=Nn1c2ccccc2c2cc([N+](=O)[O-])ccc21

1: 8; 2: -10
